- System: Venturia inaequalis
- assay overview: Fungicidal activity: apple scab (VENTIN)
- Format: in vivo
- particulars: 24 h, 1 Day Protectant, read-out: Disease Control VENTIN 1 DP

compound	target entity	pest or weed control at 100 ppm
CCCCO[C@H]1[C@H](C)OC(=O)[C@@H](NC(=O)c2nccc(OC)c2OCOC(C)=O)COC[C@@H]1OCc1ccccc1 [Compound 34]	Venturia inaequalis	80 to 100%
CCC(C)(C)O[C@H]1COC[C@H](NC(=O)c2nccc(OC)c2OCOC(C)=O)C(=O)O[C@@H](C)[C@@H]1OCC(C)C [Compound 78]	Venturia inaequalis	80 to 100%
CCCCO[C@H]1COC[C@H](NC(=O)c2nccc(OC)c2OCOC(C)=O)C(=O)O[C@@H](C)[C@@H]1OCCC [Compound 45]	Venturia inaequalis	0 to 80%
